Each record here notes measured shrunken log2 fold change.
- System: Escherichia coli TOP10;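 note: peptides expressed intracellularly from a pBAD plasmid library in pooled LB shake-flask culture, induced with 0.3% L-arabinose, DNA abundance read by NGS, three biological replicates, DESeq2 with apeglm shrinkage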
- protocol: shrunken log2 fold change of peptide-encoding DNA abundance (4.5 h post-induction vs induction); higher = less antimicrobial activity (less host growth inhibition)
- study_conditions: time post-induction: 4.5 h; library: site-saturation at positions 5, 18, 19, 20
test_readout: shrunken log2 fold change

{"biosequence": "RRIRCRPPRLPRPRPRPRWNPRP", "test_target": "Escherichia coli TOP10", "test_readout": "shrunken log2 fold change", "measured_number": 2.15}
{"biosequence": "RRIRTRPPRLPRPRPRPRKLPRP", "test_target": "Escherichia coli TOP10", "test_readout": "shrunken log2 fold change", "measured_number": -0.073}
{"biosequence": "RRIRMRPPRLPRPRPRPKLYPRP", "test_target": "Escherichia coli TOP10", "test_readout": "shrunken log2 fold change", "measured_number": 0.256}
{"biosequence": "RRIRHRPPRLPRPRPRPPASPRP", "test_target": "Escherichia coli TOP10", "test_readout": "shrunken log2 fold change", "measured_number": 1.36}
{"biosequence": "RRIRYRPPRLPRPRPRPDLPPRP", "test_target": "Escherichia coli TOP10", "test_readout": "shrunken log2 fold change", "measured_number": -0.0756}
{"biosequence": "RRIRQRPPRLPRPRPRPWLHPRP", "test_target": "Escherichia coli TOP10", "test_readout": "shrunken log2 fold change", "measured_number": 0.0098}
{"biosequence": "RRIRARPPRLPRPRPRPEAYPRP", "test_target": "Escherichia coli TOP10", "test_readout": "shrunken log2 fold change", "measured_number": 0.114}
{"biosequence": "RRIRIRPPRLPRPRPRPTHWPRP", "test_target": "Escherichia coli TOP10", "test_readout": "shrunken log2 fold change", "measured_number": 0.133}
{"biosequence": "RRIRNRPPRLPRPRPRPICDPRP", "test_target": "Escherichia coli TOP10", "test_readout": "shrunken log2 fold change", "measured_number": -0.119}
{"biosequence": "RRIRTRPPRLPRPRPRPVYIPRP", "test_target": "Escherichia coli TOP10", "test_readout": "shrunken log2 fold change", "measured_number": -0.6}
{"biosequence": "RRIRLRPPRLPRPRPRPKVGPRP", "test_target": "Escherichia coli TOP10", "test_readout": "shrunken log2 fold change", "measured_number": 0.109}
{"biosequence": "RRIRGRPPRLPRPRPRPKFCPRP", "test_target": "Escherichia coli TOP10", "test_readout": "shrunken log2 fold change", "measured_number": 0.23}
{"biosequence": "RRIRHRPPRLPRPRPRPINYPRP", "test_target": "Escherichia coli TOP10", "test_readout": "shrunken log2 fold change", "measured_number": -0.248}
{"biosequence": "RRIRNRPPRLPRPRPRPGSTPRP", "test_target": "Escherichia coli TOP10", "test_readout": "shrunken log2 fold change", "measured_number": -0.145}
{"biosequence": "RRIRPRPPRLPRPRPRPWPEPRP", "test_target": "Escherichia coli TOP10", "test_readout": "shrunken log2 fold change", "measured_number": 0.0423}
{"biosequence": "RRIRIRPPRLPRPRPRPEKDPRP", "test_target": "Escherichia coli TOP10", "test_readout": "shrunken log2 fold change", "measured_number": -0.0191}
{"biosequence": "RRIRIRPPRLPRPRPRPGQQPRP", "test_target": "Escherichia coli TOP10", "test_readout": "shrunken log2 fold change", "measured_number": 0.0905}
{"biosequence": "RRIRTRPPRLPRPRPRPNRSPRP", "test_target": "Escherichia coli TOP10", "test_readout": "shrunken log2 fold change", "measured_number": -0.069}
{"biosequence": "RRIRHRPPRLPRPRPRPMVIPRP", "test_target": "Escherichia coli TOP10", "test_readout": "shrunken log2 fold change", "measured_number": -0.0264}
{"biosequence": "RRIRLRPPRLPRPRPRPNYWPRP", "test_target": "Escherichia coli TOP10", "test_readout": "shrunken log2 fold change", "measured_number": -0.0686}
{"biosequence": "RRIRIRPPRLPRPRPRPTQVPRP", "test_target": "Escherichia coli TOP10", "test_readout": "shrunken log2 fold change", "measured_number": 0.00035}
{"biosequence": "RRIRVRPPRLPRPRPRPWWHPRP", "test_target": "Escherichia coli TOP10", "test_readout": "shrunken log2 fold change", "measured_number": 0.0994}
{"biosequence": "RRIRLRPPRLPRPRPRPQLMPRP", "test_target": "Escherichia coli TOP10", "test_readout": "shrunken log2 fold change", "measured_number": 0.0272}
{"biosequence": "RRIRFRPPRLPRPRPRPPNLPRP", "test_target": "Escherichia coli TOP10", "test_readout": "shrunken log2 fold change", "measured_number": -0.0642}
{"biosequence": "RRIRPRPPRLPRPRPRPCQLPRP", "test_target": "Escherichia coli TOP10", "test_readout": "shrunken log2 fold change", "measured_number": -0.659}
{"biosequence": "RRIRDRPPRLPRPRPRPPCRPRP", "test_target": "Escherichia coli TOP10", "test_readout": "shrunken log2 fold change", "measured_number": -0.0227}
{"biosequence": "RRIRPRPPRLPRPRPRPLTWPRP", "test_target": "Escherichia coli TOP10", "test_readout": "shrunken log2 fold change", "measured_number": 0.0214}
{"biosequence": "RRIRCRPPRLPRPRPRPQHNPRP", "test_target": "Escherichia coli TOP10", "test_readout": "shrunken log2 fold change", "measured_number": -0.771}
{"biosequence": "RRIRCRPPRLPRPRPRPSYYPRP", "test_target": "Escherichia coli TOP10", "test_readout": "shrunken log2 fold change", "measured_number": -0.794}
{"biosequence": "RRIRWRPPRLPRPRPRPTQIPRP", "test_target": "Escherichia coli TOP10", "test_readout": "shrunken log2 fold change", "measured_number": 0.132}
{"biosequence": "RRIRMRPPRLPRPRPRPMAEPRP", "test_target": "Escherichia coli TOP10", "test_readout": "shrunken log2 fold change", "measured_number": 2.79}
{"biosequence": "RRIRWRPPRLPRPRPRPNASPRP", "test_target": "Escherichia coli TOP10", "test_readout": "shrunken log2 fold change", "measured_number": 0.267}
{"biosequence": "RRIRIRPPRLPRPRPRPLVVPRP", "test_target": "Escherichia coli TOP10", "test_readout": "shrunken log2 fold change", "measured_number": -0.25}

Ref: the supplement of paper PMC9112550
